# System: DU-145 prostate
# Experimental Details: NCI-60 one-dose screen, 48 h (100 = growth as untreated, 0 = no growth, -100 = all killed)
# Assay Context: 10 µM unless noted
# Procedure: Cells are grown in 96 well plates and exposed to the test compound for 48 hours. Compounds are tested at a single concentration, which is 10^-5 M for most compounds. The reported endpoint is percent growth (GI% or GIPRCNT), where numbers from 0 - 100% represent growth inhibition, and numbers from -100% - 0 represent cell death. For example, a value of 40 represents 60% growth inhibition. A value of 0 means no net growth occurred over the course of the experiment. […]
About 83,000 compounds went through this panel and 20% of them were active in at least one assay; those are over-represented in the sample as a whole.
Exam item: assign Y to entries whose growth is below 90% and N to entries at or above 90%. Note that a value of exactly 90% receives N.

Consider the compound "Cc1ccc(C(=O)COc2cccc(/C=C3\Oc4ccccc4C3=O)c2)cc1" . Is its growth strictly less than 90%? N

Consider the compound "Fc1c[c-]c(-c2ccccn2)c(F)c1.[CH3-].[Pt+2].c1ccc(P(C[PH+](c2ccccc2)c2ccccc2)c2ccccc2)cc1" . Is its growth strictly less than 90%? Y

Consider the compound O=c1cc(C2NNC(=S)N2)c2ccc3ccccc3c2o1 (stereo unspecified) . Is its growth strictly less than 90%? N

Consider the compound "COc1ccc(C(=O)Nn2c(NCC(=O)N3c4ccccc4Sc4ccccc43)nnc2-c2ccc(O)cc2)cc1" . Is its growth strictly less than 90%? N

Consider the compound "COC1=C(OC)C(=O)C(OC)=C(OC)C1=O" . Is its growth strictly less than 90%? N

Consider the compound "CN(C)c1ccc(-c2cc(-c3ccc(Nc4nc(Nc5ccc(Cl)cc5)nc(Nc5ccc(Cl)cc5)n4)cc3)no2)cc1" . Is its growth strictly less than 90%? Y

Consider the compound "CC(C)CCC[C@@H](C)[C@H]1CC[C@H]2[C@@H](Nc3ccc(O)cc3)CCC[C@]12C" . Is its growth strictly less than 90%? N

Consider the compound "N#C/C(=C\c1ccc(Br)cc1)n1nnc2cc(F)c(F)cc21" . Is its growth strictly less than 90%? Y

Consider the compound CS(=O)c1cccc(-c2ccc3nc(N)n(-c4ccc(C(F)(F)F)cc4)c(=O)c3c2)c1 (stereo unspecified) . Is its growth strictly less than 90%? N

Consider the compound "O=c1c2cc(F)ccc2sc2c(Nc3cccnc3)nc3ccccc3c12" . Is its growth strictly less than 90%? N

Consider the compound "c1ccc(Nc2nc(-c3ccccn3)cs2)nc1" . Is its growth strictly less than 90%? Y

Consider the compound CCN1C(=O)N(CC)C2Nn3c(s/c(=C\c4ccc(Cl)cc4Cl)c3=O)=NC21 (stereo unspecified) . Is its growth strictly less than 90%? Y

Consider the compound "COc1cccc(C(=O)NCCCNc2cc(-c3cn(-c4ccccc4)nc3-c3cccc(OC)c3)ccn2)c1" . Is its growth strictly less than 90%? Y

Consider the compound COCN1CCC2N(COC)CCC3N(COC)CCC1N23 (stereo unspecified) . Is its growth strictly less than 90%? N

Consider the compound "Cc1nc2c(c(N3CCCc4ccccc43)n1)CCC2" . Is its growth strictly less than 90%? Y

Consider the compound "C=CCNc1nc(NN2C(=O)c3cccc4cccc(c34)C2=O)nc(-n2cnc3ccccc32)n1" . Is its growth strictly less than 90%? N

Consider the compound "Cc1cccc(NC(=O)CSc2nc3ccccc3[nH]2)c1" . Is its growth strictly less than 90%? N

Consider the compound "COc1cc(/C=N/n2c(CN3CCOCC3)nc3ccccc3c2=O)cc(OC)c1OC" . Is its growth strictly less than 90%? N

Consider the compound "O=C(NCCc1ccc(O)c(O)c1)C12CC3CC(CC(C3)C1)C2" . Is its growth strictly less than 90%? N

Consider the compound COc1cc(C2NC(=O)c3ccccc3N2)ccc1OCCCCCOc1c(OC)cc(C2=NOC(c3cc(OC)c(OC)c(OC)c3)C2)cc1OC (stereo unspecified) . Is its growth strictly less than 90%? N

* * *

# Tested on: LOX IMVI melanoma
# Experimental Details: NCI-60 one-dose screen, 48 h
# Assay Context: 10 µM unless noted
This is part of a sample that, as a whole, favours compounds with a hit. Of some 83,000 tested, about 20% had one in any assay. Active and inactive are the calls of the source. How the source made its calls: active means growth percent below 10; inactive means the rest.
Hi there, use one of these labels in your reply, thanks! active, inactive

What was the test verdict on "COc1cc(/C=C/C(=O)c2ccc(Nc3nc(Nc4ccc(F)cc4)nc(Nc4ccc(Cl)cc4)n3)cc2)cc(OC)c1OC" ? inactive

What was the test verdict on COc1ccc(/C=N/C2=C(C#N)C(c3ccc(OC)cc3)c3ccc4ccccc4c3O2)cc1 (configuration not stated) ? inactive

What was the test verdict on "O=Cc1ccc(O)c2ncccc12" ? active

What was the test verdict on COc1ccc(-c2nc3c(c(=O)n2C(C)=O)C(c2ccc(Cl)cc2)c2sc4c(Cl)cccc4c2O3)cc1 (configuration not stated) ? active

What was the test verdict on "S=C(Cc1ccc2c(c1)CCCC2)N1CCOCC1" ? inactive

What was the test verdict on "COc1ccc(-c2nc3ccc4[nH]ncc4c3c3c2CCCC3)cc1B(O)O" ? inactive

What was the test verdict on "CCCCn1c(=O)c2c(nc(NCCc3ccc(O)c(O)c3)n2CCC)n(CCCC)c1=O" ? inactive

What was the test verdict on "C=C1C(=O)O[C@H]2[C@H]1CC/C(COC(=O)C(=O)c1cn(C)c3ccc(OC)cc13)=C\CC[C@@]1(C)O[C@@H]21" ? active

What was the test verdict on "CCCCCCCC/C=C\CCCCCCCCOc1ccccc1CC(=O)NCC[N+](C)(C)C" ? inactive

What was the test verdict on "c1coc(-c2c3ccc(=[N+]4CCCCC4)cc-3oc3cc(N4CCCCC4)ccc23)c1" ? active

What was the test verdict on "C[C@@]1(CCC#N)[C@H]2CC[C@@H]3[C@H]4[C@H](C(=O)/C=C/c5cccnc5)CC[C@]4(C#N)CC[C@@]3(C)[C@]2(C)CC[C@H]1C(=O)/C=C/c1cccnc1" ? inactive

What was the test verdict on "COC(=O)[C@]12CC[C@@H](C)[C@H](C)[C@@H]1C1=CC[C@@H]3[C@@]4(C)C(C=O)=C[C@@](C)(COS(C)(=O)=O)[C@@H]4C(=O)C[C@@]3(C)[C@]1(C)CC2" ? inactive

What was the test verdict on "COC(=O)c1c2c(c[n+]([O-])c1C)C(=O)C=CC2=O" ? inactive

What was the test verdict on CC1(C)CC(=O)C2=C(C1)N(c1ccc(OC(F)(F)F)cc1)C(N)=C(C#N)C2c1ccc(Cl)cc1 (configuration not stated) ? inactive

What was the test verdict on "Cc1cc(N2CCCC2)nc(NCc2cc(Nc3ccnc4cc(Cl)ccc34)ccc2F)n1" ? active

What was the test verdict on CCN1C(=O)N(CC)C2Nn3c(s/c(=C\c4ccc(Cl)cc4Cl)c3=O)=NC21 (configuration not stated) ? inactive

What was the test verdict on CCOP(=O)(OCC)C1CP(=O)(c2ccccc2)CC(C)=C1Cl (configuration not stated) ? inactive

What was the test verdict on "Cn1cc(-c2csc(-c3cccc(F)c3)n2)c2cccnc21" ? active

What was the test verdict on "C[C@]12CC[C@@H]3c4cc(OC(F)F)c(O)cc4CC[C@H]3[C@@H]1CC[C@@H]2OS(N)(=O)=O" ? inactive

What was the test verdict on "O=[N+]([O-])c1ccc(-c2cc(-c3ccc(Nc4nc(Nc5ccc(Cl)cc5)nc(Nc5ccc(Cl)cc5)n4)cc3)no2)cc1" ? inactive

What was the test verdict on "CCN(CC)CCN1CC(O)=C(c2nc(-c3ccc(Cl)cc3)cs2)C1=N" ? active

What was the test verdict on "O=C1/C(=C/c2ccccc2)CCc2nc3ccccc3c(/C=C/c3ccc(Cl)cc3)c21" ? inactive

What was the test verdict on "COc1ccc2nc(NNC(=O)c3cnccn3)c3cccn3c2c1" ? active

What was the test verdict on "O=C(COc1ccc(/C=C2\Oc3ccccc3C2=O)cc1)c1ccc(Cl)cc1" ? inactive

What was the test verdict on Cc1ccc(NS(=O)(=O)c2ccc3c(c2)C(=O)CC(c2ccc(C(=O)C(C)C)cc2)N3)cc1C (configuration not stated) ? inactive

What was the test verdict on CCSC1=NC2C(N(CC)C(=O)N2CC)N1/N=C/C=C/c1ccccc1[N+](=O)[O-] (configuration not stated) ? inactive

What was the test verdict on "Cc1nc2c(c(N3CCCc4ccccc43)n1)CCC2" ? inactive

What was the test verdict on "Cn1c(I)c(C#C[Si](C)(C)C)c(=O)n(C(=O)c2ccccc2)c1=O" ? active

What was the test verdict on "Cc1cc(Cl)ccc1Nc1nc(C(F)(F)F)ccc1C(=O)N/N=C/c1ccc(N(C)C)cc1" ? inactive

What was the test verdict on "COc1ccc2[nH]c(O)c(/C=c3/cc4c(c(-c5cc(OC)c(OC)c(OC)c5)n3)=Nc3ccccc3-4)c2c1" ? inactive

What was the test verdict on "O=C1Nc2ccccc2/C1=C/c1cn(C(=O)c2ccc(Cl)cc2)c2ccccc12" ? inactive

What was the test verdict on "O=c1c2c3c(sc2nc(N/N=C/c2ccc(Br)cc2)n1Cc1ccccc1)CCCC3" ? inactive

What was the test verdict on "COC(=O)c1c2c(c(C)[n+]([O-])c1C)C(=O)C(NCc1ccc(F)cc1)=CC2=O" ? inactive

What was the test verdict on COc1ccc(-c2[nH]c(=S)n(C(CC3(C)NCC(=O)N3n3c(-c4ccccc4)cc(C)nc3=S)c3ccc(OC)cc3)c(=O)c2Br)cc1 (configuration not stated) ? inactive

What was the test verdict on CC(=O)n1c(-c2ccc(Cl)cc2)nc2c(c1=O)C(c1ccc(Cl)cc1)c1sc3c(Cl)cccc3c1O2 (configuration not stated) ? active

What was the test verdict on CC(=O)N1C(=S)NC(=O)C1Cn1c(-c2ccccc2)nc2ccccc21 (configuration not stated) ? inactive

What was the test verdict on "CCOC(=O)c1c(/C=C/C(=O)O)nc2ccccc2c1/C=C/c1ccccc1" ? inactive

Value source: PubChem BioAssay (NCI)
